B1: library; a variant is named by its letters at N, in order (parent)
chain: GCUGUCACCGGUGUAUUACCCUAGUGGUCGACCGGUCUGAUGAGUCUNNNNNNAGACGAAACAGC

Variants of: B1
Test: normalized RNA/DNA level with ligand (relative to sTRSVctl = 100) (log10 (% of sTRSVctl)); ligand: hypoxanthine (xanthine aptamer); higher = less ribozyme self-cleavage, higher mRNA level
Details: ligand concentration (+) RNA-Seq: 5 mM, HEK293T, reporter: mCherry (pCS4076), ligand present: yes
Kindly state normalized RNA/DNA level with ligand (log10) for each of the entries shown.
Reply briefly: the number, and no unit.

variant GGGCUA , normalized RNA/DNA level with ligand (log10) observed: 2.01

Given item CGCGAG , the value recorded as its normalized RNA/DNA level with ligand (log10) is 1.84

Please fill in: normalized RNA/DNA level with ligand (log10) reported for AGGUCA = 1.94

In plain terms, UCACAA has a documented normalized RNA/DNA level with ligand (log10) of 1.92

Data point: ACUUCC ; normalized RNA/DNA level with ligand (log10) = 1.93

The variant listed as GUUUCG has a reported normalized RNA/DNA level with ligand (log10) of 1.97

normalized RNA/DNA level with ligand (log10) reported for this variant UCUAAA : 1.96

Short answer for CACUUG : normalized RNA/DNA level with ligand (log10) was 1.95

Recorded normalized RNA/DNA level with ligand (log10) (variant AAGACU ): 1.95

Lab book: normalized RNA/DNA level with ligand (log10) of GGCGCC noted as 2

Sure, the documented normalized RNA/DNA level with ligand (log10) for UUUGAU is 1.9

normalized RNA/DNA level with ligand (log10) reading for CGUUAA : 1.89

Per the records, this variant ( AAUUAG ) has normalized RNA/DNA level with ligand (log10) equal to 1.86

Entry under test: AAAAUA . Its normalized RNA/DNA level with ligand (log10) was 1.91

Documented normalized RNA/DNA level with ligand (log10) of AGGUAA : 1.87

# variant CUGCGA ; its normalized RNA/DNA level with ligand (log10) = 1.98

Just so you know, measured normalized RNA/DNA level with ligand (log10) for CCGAAA came out at 1.91

Value of measured normalized RNA/DNA level with ligand (log10) for the entry CAUGGA : 1.92

Note to self: normalized RNA/DNA level with ligand (log10) recorded for AUGAGG was 1.64

CAGUUA yielded normalized RNA/DNA level with ligand (log10) of 1.87

Per the records, this variant ( AUGUCG ) has normalized RNA/DNA level with ligand (log10) equal to 1.86

// field: normalized RNA/DNA level with ligand (log10); key: AAUGUG ; value = 1.82
